These data points were gathered from BindingDB's records for doi:10.1016/j.bmc.2020.115887.

# Test name: Inhibition of beta3 Tubulin (unknown origin) expressed in human HeLa cell line assessed as inhibition of cell proliferation measured after 48 hrs by SRB method
Reported pIC50 values for the following molecules.
The scale used: pIC50 is minus the common logarithm of the concentration in molar units.

Consider the worked cases shown below.
COc1cccc2cc(N(C)c3nc(N)nc4c3CCC4)ccc12    8.02
COc1ccc(N(C)c2nc(C)nc3c2CCC3)c2ccccc12    6.74
COc1cccc2cc(N(C)c3ncnc4c3CCC4)ccc12    7.37

Switching to the query record.
Summary for this molecule, COc1ccc(N(C)c2nc(C)nc3c2CCC3)cc1 : pIC50 is 8.02
